assay: Inhibition of PDE4D7 S129D mutant (unknown origin) preincubated for 5 to 10 mins followed by substrate addition and measured for 10 mins by coupled enzyme based fluorescence analysis; parameters: species or system Homo sapiens
Reported log10(IC50) by item:
The base-10 logarithm of IC50, taken with IC50 in nM, is what appears here.

# example entries with known answers
COc1ccc(Cc2cn[nH]c2)nc1-c1cccc(C(F)(F)F)c1; 2.27
COc1ccc(Nc2cn[nH]c2)nc1-c1cccc(Cl)c1; 2.67

log10(IC50) reading for COc1cccc(-c2nc(Cc3ccc(CCCO)cc3)ccc2OC(F)F)c1 : 1.38

log10(IC50) reading for FC(F)Oc1ccc(Cc2cn[nH]c2)nc1-c1cccc(OCc2ccccc2)c1 : 2.65

log10(IC50) reading for COc1ccc(Cn2cncn2)nc1-c1cccc(OC(F)F)c1 : 1.18

log10(IC50) reading for COc1cccc(-c2nc(COc3cn[nH]c3)ccc2OC(F)F)c1 : 2.57

* * *

Reported pIC50 by item:
target: 3',5'-cyclic-AMP phosphodiesterase 4B (Homo sapiens, UniProt Q07343, S133D); experiment: Inhibition of PDE4B1 S133D mutant (unknown origin) preincubated for 5 to 10 mins followed by substrate addition and measured for 10 mins by coupled enzyme based fluorescence analysis
Sequence (Q07343 whole entry S133D): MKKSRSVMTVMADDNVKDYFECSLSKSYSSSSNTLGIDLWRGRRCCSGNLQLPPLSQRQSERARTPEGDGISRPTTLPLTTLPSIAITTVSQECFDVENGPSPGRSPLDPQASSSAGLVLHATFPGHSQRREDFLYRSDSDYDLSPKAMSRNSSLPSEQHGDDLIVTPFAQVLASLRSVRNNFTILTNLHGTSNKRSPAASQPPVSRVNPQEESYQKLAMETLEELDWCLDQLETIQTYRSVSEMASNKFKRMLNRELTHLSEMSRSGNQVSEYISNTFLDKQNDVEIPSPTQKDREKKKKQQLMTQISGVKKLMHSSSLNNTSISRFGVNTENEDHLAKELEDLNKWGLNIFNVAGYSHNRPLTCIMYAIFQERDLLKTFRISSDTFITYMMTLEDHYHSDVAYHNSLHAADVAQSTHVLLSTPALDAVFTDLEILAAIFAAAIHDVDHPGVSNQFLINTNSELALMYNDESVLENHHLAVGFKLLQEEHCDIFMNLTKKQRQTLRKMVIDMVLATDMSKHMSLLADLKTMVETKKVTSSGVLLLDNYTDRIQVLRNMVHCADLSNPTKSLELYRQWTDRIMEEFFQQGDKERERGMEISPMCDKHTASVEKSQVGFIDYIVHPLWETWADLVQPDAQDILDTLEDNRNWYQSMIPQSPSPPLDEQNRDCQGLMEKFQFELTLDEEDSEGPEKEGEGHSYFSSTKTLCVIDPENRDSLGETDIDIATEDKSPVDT
Just so you know, pIC50 here is -log10 of the concentration in molar units; reply with that number alone.

COc1ccc(Cc2ccncc2)nc1-c1cccc(OC(F)F)c1; 6.18
COc1cccc(-c2nc(Cn3cnnn3)ccc2OC(F)F)c1; 6.19
COc1cccc(-c2nc(CNc3cn[nH]c3)ccc2OC(F)F)c1; 5.64

pIC50 reading for COc1ccc(Cc2cnn(C)c2)nc1-c1cccc(OC(F)F)c1 : 5.84

pIC50 reading for O=[N+]([O-])c1cccc(-c2nc(Cc3cn[nH]c3)ccc2OC(F)F)c1 : 7.04

* * *

Reported IC50 by item:
assay: Inhibition of PDE4D7 S129D mutant (unknown origin) preincubated for 5 to 10 mins followed by substrate addition and measured for 10 mins by coupled enzyme based fluorescence analysis; parameters: species or system Homo sapiens

COc1cccc(-c2nc(Cc3cncnc3)ccc2OC(F)F)c1; 10.2 nM
COc1cccc(-c2nc(Cn3cccn3)ccc2OC(F)F)c1; 281 nM
COc1ccc(Cc2cn[nH]c2)nc1-c1cccc(OC(F)F)c1; 1.4 nM

IC50 reading for FC(F)Oc1ccc(Cn2ccnc2)nc1-c1cccc(OCc2ccccc2)c1 : 85 nM

IC50 reading for Fc1cccc(-c2nc(Cc3cn[nH]c3)ccc2OC(F)F)c1 : 7.6 nM

* * *

test: Selectivity index, ratio of IC50 for PDE4B1 S133D mutant (unknown origin) to IC50 for PDE4D7 S129D mutant (unknown origin)
Label 1 for high-side Ratio IC50 (at or above 80) and -1 for low-side Ratio IC50 (below it).

COc1cccc(-c2nc(CNc3cn[nH]c3)ccc2OC(F)F)c1; -1
FC(F)Oc1ccc(Cc2cn[nH]c2)nc1-c1cccc(OCc2ccccc2)c1; -1
COc1ccc(Oc2cn[nH]c2)nc1-c1cccc(F)c1; -1

Prompt: Determine whether this compound has Ratio IC50 no lower than 80: COc1ccc(Cc2cn[nH]c2)nc1-c1ccc2nonc2c1
Completion: -1

Prompt: Determine whether this compound has Ratio IC50 no lower than 80: O=[N+]([O-])c1cccc(-c2nc(Cn3ccnc3)ccc2OC(F)F)c1
Completion: 1

Prompt: Determine whether this compound has Ratio IC50 no lower than 80: COc1cccc(-c2nc(Cc3cn[nH]c3)ccc2OC(F)F)c1
Completion: 1

Prompt: Determine whether this compound has Ratio IC50 no lower than 80: COc1ccc(Oc2cn[nH]c2)nc1-c1cccc(Cl)c1
Completion: -1

* * *

assay: Inhibition of human PDE4D7 S129D mutant by coupled enzyme based fluorescence analysis
attribute.measured: pIC50
Just so you know, pIC50 here is -log10 of the concentration in molar units; reply with that number alone.

pIC50 reading for COc1ccc(Cc2cnn(C)c2)nc1-c1cccc(Cl)c1 : 9.30

* * *

biological target: 3',5'-cyclic-AMP phosphodiesterase 4B (Homo sapiens, UniProt Q07343, S133D); test: Inhibition of PDE4B1 S133D mutant (unknown origin) preincubated for 5 to 10 mins followed by substrate addition and measured for 10 mins by coupled enzyme based fluorescence analysis
pIC50: −log10 of the molar value.
Label yes for high-side pIC50 (at or above 6) and no for low-side pIC50 (below it).

Prompt: Determine whether this compound has pIC50 no lower than 6: COc1ccc(Cn2cccn2)nc1-c1cccc(Cl)c1
Completion: no

* * *

target: 3',5'-cyclic-AMP phosphodiesterase 4B (Homo sapiens, UniProt Q07343, S133D); experiment: Inhibition of human PDE4B1 S133D mutant by coupled enzyme based fluorescence analysis
attribute.measured: pIC50
Just so you know, pIC50 here is -log10 of the concentration in molar units; reply with that number alone.

# example entries with known answers
COc1ccc(Cc2cn[nH]c2)nc1-c1cccc([N+](=O)[O-])c1; 6.55
COc1ccc(Cc2ccncc2)nc1-c1cccc(Cl)c1; 6.14
COc1ccc(Cc2cnn(C)c2)nc1-c1cccc(Cl)c1; 6.07

Here is the next item to consider.
pIC50 reading for COc1ccc(Cc2ccncc2)nc1-c1cccc([N+](=O)[O-])c1 : 5.95

* * *

test: Selectivity index, ratio of IC50 for PDE4B1 S133D mutant (unknown origin) to IC50 for PDE4D7 S129D mutant (unknown origin)
So basically, if Ratio IC50 comes in under 200 it's Criterion met, and if it's 200 or more it's Criterion not met.

Fc1cccc(-c2nc(Cn3ccnc3)ccc2OC(F)F)c1; Criterion met
COc1cccc(-c2nc(Cn3ccnc3)ccc2OC(F)F)c1; Criterion not met

Prompt: Dear colleague, could you confirm whether Ratio IC50 of COc1cccc(-c2nc(Cc3cnn(C)c3)ccc2OC(F)F)c1 falls below 200? Thanks.
Completion: Criterion not met

* * *

test: Selectivity index, ratio of IC50 for PDE4B1 S133D mutant (unknown origin) to IC50 for PDE4D7 S129D mutant (unknown origin)
attribute.measured: Ratio IC50
Respond with the number and no other words.

# example entries with known answers
COc1cccc(-c2nc(Cc3ccc(CCO)cc3)ccc2OC(F)F)c1; 581
COc1ccc(Nc2cn[nH]c2)nc1-c1cccc(Cl)c1; 7
COc1cccc(-c2nc(Cn3cccn3)ccc2OC(F)F)c1; 4
COc1ccc(Cc2cn[nH]c2)nc1-c1cccc(F)c1; 42

Ratio IC50 reading for COc1ccc(Cc2cn[nH]c2)nc1-c1cccc(OC(F)(F)F)c1 : 162

Ratio IC50 reading for COc1ccc(Cc2cn[nH]c2)nc1-c1cccc(OC(F)F)c1 : 793

Ratio IC50 reading for O=[N+]([O-])c1cccc(-c2nc(Cc3cn[nH]c3)ccc2OC(F)F)c1 : 254

Ratio IC50 reading for COc1ccc(Cc2ccncc2)nc1-c1cccc(OC(F)F)c1 : 364

* * *

assay: Inhibition of PDE4D7 S129D mutant (unknown origin) preincubated for 5 to 10 mins followed by substrate addition and measured for 10 mins by coupled enzyme based fluorescence analysis; parameters: species or system Homo sapiens
attribute.measured: log10(IC50) (log10 of the value in nM)
The base-10 logarithm of IC50, taken with IC50 in nM, is what appears here.

# example entries with known answers
Fc1cccc(-c2nc(Oc3cn[nH]c3)ccc2OC(F)F)c1; 1.85
COc1ccc(Cn2cccn2)nc1-c1cccc(F)c1; 3.74

log10(IC50) reading for Fc1cccc(-c2nc(Nc3cn[nH]c3)ccc2OC(F)F)c1 : 2.13

log10(IC50) reading for COc1ccc(Cn2cccn2)nc1-c1cccc(Cl)c1 : 3.06

log10(IC50) reading for COc1cccc(-c2nc(Cc3ccc(CCO)cc3)ccc2OC(F)F)c1 : 0.84

* * *

target: 3',5'-cyclic-AMP phosphodiesterase 4B (Homo sapiens, UniProt Q07343, S133D); assay: Inhibition of PDE4B1 S133D mutant (unknown origin) preincubated for 5 to 10 mins followed by substrate addition and measured for 10 mins by coupled enzyme based fluorescence analysis
Reported log10 of IC50 by item:
The base-10 logarithm of IC50, taken with IC50 in nM, is what appears here.

COc1ccc(Nc2cn[nH]c2)nc1-c1cccc(F)c1; 3.40
FC(F)Oc1ccc(Cc2cn[nH]c2)nc1-c1cccc(OCc2ccccc2)c1; 2.44
COc1ccc(Cc2cn[nH]c2)nc1-c1ccc2nonc2c1; 2.86
COc1cccc(-c2nc(Cc3ccc(CCO)cc3)ccc2OC(F)F)c1; 3.60

Here is the next item to consider.
log10 of IC50 reading for COc1cccc(-c2nc(Cn3ccnc3)ccc2OC(F)F)c1 : 2.71

* * *

molecular target: 3',5'-cyclic-AMP phosphodiesterase 4B (Homo sapiens, UniProt Q07343, S133D); experiment: Inhibition of PDE4B1 S133D mutant (unknown origin) preincubated for 5 to 10 mins followed by substrate addition and measured for 10 mins by coupled enzyme based fluorescence analysis
attribute.measured: IC50

# example entries with known answers
COc1cccc(-c2nc(Cn3cnc(C(F)(F)F)n3)ccc2OC(F)F)c1; > 10000 nM
Fc1cccc(-c2nc(Cc3cn[nH]c3)ccc2OC(F)F)c1; 1070 nM

COc1cccc(-c2nc(Cc3cccnc3)ccc2OC(F)F)c1 on 3',5'-cyclic-AMP phosphodiesterase 4B (Homo sapiens, UniProt Q07343, S133D) gives IC50 = 764 nM

Fc1ccc(Cc2cn[nH]c2)nc1-c1cccc(Cl)c1 on 3',5'-cyclic-AMP phosphodiesterase 4B (Homo sapiens, UniProt Q07343, S133D) gives IC50 = > 10000 nM

COc1ccc(Nc2cn[nH]c2)nc1-c1cccc(Cl)c1 on 3',5'-cyclic-AMP phosphodiesterase 4B (Homo sapiens, UniProt Q07343, S133D) gives IC50 = 3160 nM

COc1ccc(Cc2ccc(CCO)cc2)nc1-c1cccc(OC(F)F)c1 on 3',5'-cyclic-AMP phosphodiesterase 4B (Homo sapiens, UniProt Q07343, S133D) gives IC50 = > 10000 nM

Fc1cccc(-c2nc(Oc3cn[nH]c3)ccc2OC(F)F)c1 on 3',5'-cyclic-AMP phosphodiesterase 4B (Homo sapiens, UniProt Q07343, S133D) gives IC50 = 3110 nM

COc1cccc(-c2nc(Cc3ccc(CCCO)cc3)ccc2OC(F)F)c1 on 3',5'-cyclic-AMP phosphodiesterase 4B (Homo sapiens, UniProt Q07343, S133D) gives IC50 = > 10000 nM
